TESTED_SYSTEM: human α1H T-type channels (Homo sapiens)
Construct: expressed in transfected cells; host or cells: HEK 293
Sequence (O95180 whole entry): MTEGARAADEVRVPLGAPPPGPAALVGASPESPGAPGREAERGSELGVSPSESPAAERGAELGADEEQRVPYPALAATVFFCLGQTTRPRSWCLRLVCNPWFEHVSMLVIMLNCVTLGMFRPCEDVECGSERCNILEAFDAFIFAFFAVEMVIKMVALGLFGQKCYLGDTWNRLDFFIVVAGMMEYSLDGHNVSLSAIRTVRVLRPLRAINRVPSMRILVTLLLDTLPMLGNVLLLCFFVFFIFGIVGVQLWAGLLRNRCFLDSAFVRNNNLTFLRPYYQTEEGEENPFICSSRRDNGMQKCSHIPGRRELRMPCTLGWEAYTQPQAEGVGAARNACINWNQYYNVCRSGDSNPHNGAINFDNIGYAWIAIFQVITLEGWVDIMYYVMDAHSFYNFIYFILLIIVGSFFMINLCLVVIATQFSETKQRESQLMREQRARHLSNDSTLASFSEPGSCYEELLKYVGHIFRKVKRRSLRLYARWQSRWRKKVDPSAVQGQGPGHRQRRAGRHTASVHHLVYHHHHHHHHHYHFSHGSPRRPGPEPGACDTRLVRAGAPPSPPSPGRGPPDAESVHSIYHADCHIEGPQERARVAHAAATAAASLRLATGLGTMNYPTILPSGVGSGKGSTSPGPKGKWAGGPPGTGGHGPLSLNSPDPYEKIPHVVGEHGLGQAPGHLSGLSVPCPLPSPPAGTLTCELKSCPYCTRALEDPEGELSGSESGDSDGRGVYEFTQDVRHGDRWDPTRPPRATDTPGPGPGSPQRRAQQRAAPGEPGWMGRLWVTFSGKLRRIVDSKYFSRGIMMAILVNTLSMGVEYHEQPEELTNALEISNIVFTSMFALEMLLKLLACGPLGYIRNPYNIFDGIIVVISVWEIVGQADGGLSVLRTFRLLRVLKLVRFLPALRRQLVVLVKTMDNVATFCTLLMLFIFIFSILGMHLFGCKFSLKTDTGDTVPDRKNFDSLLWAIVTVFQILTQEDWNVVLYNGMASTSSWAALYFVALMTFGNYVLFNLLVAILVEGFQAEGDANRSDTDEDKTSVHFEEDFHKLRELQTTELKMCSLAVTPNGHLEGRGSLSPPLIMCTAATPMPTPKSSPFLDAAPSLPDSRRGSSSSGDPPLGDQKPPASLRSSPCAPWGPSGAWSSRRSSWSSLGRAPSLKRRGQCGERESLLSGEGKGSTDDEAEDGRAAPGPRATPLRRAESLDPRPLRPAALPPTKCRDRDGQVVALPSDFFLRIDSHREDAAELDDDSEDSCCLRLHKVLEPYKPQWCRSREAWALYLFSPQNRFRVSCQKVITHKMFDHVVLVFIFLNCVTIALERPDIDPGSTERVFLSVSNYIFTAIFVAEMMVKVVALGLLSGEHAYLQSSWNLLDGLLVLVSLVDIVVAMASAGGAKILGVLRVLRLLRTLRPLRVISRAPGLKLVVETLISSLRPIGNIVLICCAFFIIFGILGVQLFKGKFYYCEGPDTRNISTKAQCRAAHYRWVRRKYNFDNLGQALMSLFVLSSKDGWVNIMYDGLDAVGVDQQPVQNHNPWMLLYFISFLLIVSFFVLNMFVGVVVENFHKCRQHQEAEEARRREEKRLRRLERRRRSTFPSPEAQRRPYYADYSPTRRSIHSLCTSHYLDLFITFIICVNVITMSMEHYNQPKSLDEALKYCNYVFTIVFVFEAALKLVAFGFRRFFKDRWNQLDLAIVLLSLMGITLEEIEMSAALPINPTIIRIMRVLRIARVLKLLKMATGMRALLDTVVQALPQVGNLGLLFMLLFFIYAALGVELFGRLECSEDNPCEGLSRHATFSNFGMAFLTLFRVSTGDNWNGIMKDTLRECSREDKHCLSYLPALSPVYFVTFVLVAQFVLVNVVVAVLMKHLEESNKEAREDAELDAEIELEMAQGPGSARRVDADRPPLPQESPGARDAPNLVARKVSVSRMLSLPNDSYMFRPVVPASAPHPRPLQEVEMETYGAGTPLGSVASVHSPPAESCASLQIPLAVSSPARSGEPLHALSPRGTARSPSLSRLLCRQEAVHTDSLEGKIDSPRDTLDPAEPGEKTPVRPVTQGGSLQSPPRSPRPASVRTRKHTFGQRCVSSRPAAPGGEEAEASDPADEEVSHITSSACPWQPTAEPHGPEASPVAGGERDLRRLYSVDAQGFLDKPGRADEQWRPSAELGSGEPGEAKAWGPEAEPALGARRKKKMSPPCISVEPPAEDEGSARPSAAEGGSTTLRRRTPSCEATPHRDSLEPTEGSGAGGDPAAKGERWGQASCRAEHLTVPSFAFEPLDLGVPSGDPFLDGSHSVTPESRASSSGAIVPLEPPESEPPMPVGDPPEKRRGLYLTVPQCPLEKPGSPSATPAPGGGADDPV
PROTOCOL_SUMMARY: T-type calcium channel block, whole cell patch clamp in HEK cells (α1H)
Type: cell-based
CONDITIONS: HEK cells, patch clamp, mainly non-inactivated protocol; values above 10 μM shown as 10 μM; read-out: T-type Calcium Channel Block α1H IC50
MEASURED_PARAMETER: IC50 (µM)

- COMPOUND: "O=C(/C=C/c1cc(F)cc(F)c1)NCC1CCN(CCNC(=O)CCC(F)(F)F)CC1"
  VALUE_REPORTED: 9.24
- COMPOUND: "O=C(NCC1CCN(CCNS(=O)(=O)C2CC2)CC1)c1ccc(OC(F)(F)F)cc1"
  VALUE_REPORTED: 2.87
- COMPOUND: "C[C@@H]1CCCCN1C(=O)CN1CCC(CNC(=O)c2cc(C(F)(F)F)cc(C(F)(F)F)c2)CC1"
  VALUE_REPORTED: 0.14
- COMPOUND: "CCCCCNCC(=O)N1CCC(CNC(=O)c2cc(C(F)(F)F)cc(C(F)(F)F)c2)CC1"
  VALUE_REPORTED: 0.52

[P] O=C(CC1CCN(CC(O)C(F)(F)F)CC1)Nc1cc(C(F)(F)F)cc(C(F)(F)F)c1 (centres unmarked)
[Q] Cc1cc(F)cc(C(=O)NCC2CCN(CC(=O)N(C)C(C)(C)C)CC2)c1
Hello, I am sorting some records. Could you say if P or Q has the smaller IC50 value? // respond with label for picked entry
Q
